molecular target: PahS; experiment: SPR, PAHs injected over PahS sensor chip; conditions: read-out: KD of PahS for PAH, 20°C
pKd: −log10 of the molar value.
MEASUREMENT KIND: pKd

1. c1ccc2ccccc2c1 [naphthalene]
2. c1ccc2c(c1)Cc1ccccc1-2 [fluorene]
Which value of pKd is greater, the one for 1 or the one for 2 ? Mark your answer with the label of the selected entry.
1
(1: 7.84, 2: 6.75)

---

target: PahP; assay: SPR, PAHs injected over PahP sensor chip; conditions: read-out: KD of PahP for PAH
pKd: −log10 of the molar value.
MEASUREMENT KIND: pKd

{"MOLECULE": "c1ccc2cc3ccccc3cc2c1 [anthracene]", "pKd": 7.39}
{"MOLECULE": "c1cc2ccc3cccc4ccc(c1)c2c34 [pyrene]", "pKd": 7.84}
{"MOLECULE": "c1ccc2c(c1)ccc1ccccc12 [phenanthrene]", "pKd": 7.71}

A. c1ccc2c(c1)Cc1ccccc1-2 [fluorene]
B. c1ccc2ccccc2c1 [naphthalene]
For A and B , which recorded pKd is lower? Label of pick, please.
A
